experiment: kinetic analysis, non-endpoint assay at 23° C.; assay type: biochemical; settings: Table 10 series; 23° C.; unit as defined; read-out: Km Quizalofop
Recorded Km values for a group of molecules are listed next.

Before answering, review these 2 worked examples.
>  <Molecule>
MON-HT1: engineered oxygenase protein, amino acid sequence SEQ ID NO:14 (protein) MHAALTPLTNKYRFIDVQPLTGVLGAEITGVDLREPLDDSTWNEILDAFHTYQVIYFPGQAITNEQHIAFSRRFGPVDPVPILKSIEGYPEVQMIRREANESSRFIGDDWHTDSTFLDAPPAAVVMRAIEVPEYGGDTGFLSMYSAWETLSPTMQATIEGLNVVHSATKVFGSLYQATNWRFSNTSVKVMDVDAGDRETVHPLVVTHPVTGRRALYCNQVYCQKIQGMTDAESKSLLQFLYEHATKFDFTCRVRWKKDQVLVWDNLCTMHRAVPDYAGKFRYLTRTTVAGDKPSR

>  <Observed>
120 µM

$$$$
>  <Molecule>
MON-HT15: engineered oxygenase protein, amino acid sequence SEQ ID NO:49 (protein) MHAALTPLTNKYRHIDVQPLTGVLGAEITGVDLREPLDDSTWNEILDAFHTYQVIYFPGQAITNEQHIAFSRRFGPVDPVPILKSIEGYPEVQMIRREANESSRYIGDDWHADSTFLDAPPAAVVMRAIEVPEYGGDTGFLSMYSAWETLSPAMQATIEGLNVVHSATKVFGSLYQATNWRFSNTSVKVMDVDAGDRETVHPLVVTHPVTGRRALYCNQIYCQKIQGMTDAESKSLLQFLYEHATQFDFTCRVRWKKDQVLVWDNLCTMHRAVPDYAGKFRYLTRTTVAGDKPSR

>  <Observed>
120 µM

$$$$

Now let's try a different one.
get_value(item= MON-HT13: engineered oxygenase protein, amino acid sequence SEQ ID NO:47 (protein) MHAALTPLTNKYRFIDVQPLTGVLGAEITGVDLREPLDDSTWNEILDAFHTYQVIYFPGQAITNEQHIAFSRRFGPVDPVPILKSIEGYPEVQMIRREANESSRYIGDDWHADSTFLDAPPAAVVMRAIEVPEYGGDTGFLSMYSAWETLSPTMQATIEGLNVVHSATKVFGSLYQATNWRFSGTSVKVMDVDAGDRETVHPLVVTHPVTGRRALYCNQVYCQKIQGMTDAESKSLLQFLYEHATQFDFTCRVRWKKDQVLVWDNLCTMHRAVPDYAGKFRYLTRTTVAGDKPSR , readout=Km) returns 120 µM

FYI, the data here is from patent US12723255B2.
